Data origin: patent US20080312435A1

I'd be grateful if you could share measured pIC50 for these entries.
biological target: human CB2 receptor (Homo sapiens, UniProt P34972); construct: expressed in transfected cells; assay: Human CB2 receptor binding inhibition test ([3H]CP-55,940, CHO membrane fractions); conditions: [3H]CP-55,940, membrane fractions of CHO cells stably expressing human CB2 receptor, 25° C., 2 hours; read-out: CB2 IC50 (Inhibition of binding to human CB2 receptor)
Sequence (P34972 whole entry): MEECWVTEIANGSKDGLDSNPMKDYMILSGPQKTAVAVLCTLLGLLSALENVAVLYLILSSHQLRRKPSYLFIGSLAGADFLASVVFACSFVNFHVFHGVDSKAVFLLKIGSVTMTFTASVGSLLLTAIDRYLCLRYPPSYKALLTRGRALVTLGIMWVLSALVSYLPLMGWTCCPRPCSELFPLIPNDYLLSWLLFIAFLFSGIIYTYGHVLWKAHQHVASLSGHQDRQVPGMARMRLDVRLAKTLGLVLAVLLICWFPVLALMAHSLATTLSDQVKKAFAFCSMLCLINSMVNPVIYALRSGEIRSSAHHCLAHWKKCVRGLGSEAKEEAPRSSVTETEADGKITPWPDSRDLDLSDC
Answers are plain numbers, as −log10 of the molar value.

molecule=COc1ccc(C(F)(F)F)cc1C(=O)/N=c1\sc(C(C)(C)C)c(C)n1CC1CC1 observed_measurement=8.96
molecule=Cc1c(C(C)(C)C)s/c(=N\C(=O)c2cccnc2Cl)n1CC1CC1 observed_measurement=8.70
molecule=Cc1c(C(C)(C)C)s/c(=N\C(=O)c2ccccc2Cl)n1CC1CC1 observed_measurement=8.77
molecule=Cc1ccccc1C(=O)/N=c1\sc(C(C)(C)C)c(C)n1CC1CC1 observed_measurement=9.00
molecule=Cc1c(Cl)cccc1C(=O)/N=c1\sc(C(C)(C)C)c(C)n1C observed_measurement=8.13
molecule=Cc1c(C(C)(C)C)s/c(=N\C(=O)c2cccc(OC(F)(F)C(F)F)c2)n1CC1CC1 observed_measurement=8.57

Give me pIC50 for each of these molecules, listed below.
1. Cc1c(C(C)(C)C)s/c(=N\C(=O)C2C[C@H]2c2ccccc2)n1CC1CC1 (mixture of isomers)
2. Cc1c(C(C)C)o/c(=N\C(=O)c2cccc(C(F)(F)F)c2F)n1CC1CC1

Result:
1: 8.55; 2: 8.85

Give me pIC50 for each of these molecules, listed below.
1. Cc1cccc(C(=O)/N=c2\sc(C(C)(C)C)c(C)n2CC2CC2)c1C
2. O=C(/N=c1\ccccn1CC1CC1)c1cccc(C(F)(F)F)c1F
3. Cc1c(C(=O)/N=c2\cc(C(C)(C)C)n(C)n2CC2CC2)cccc1C(F)(F)F
4. COc1cc(Cl)ccc1C(=O)/N=c1\sc(C(C)(C)C)c(C)n1C
5. Cc1c(C(C)(C)C)s/c(=N\C(=O)C2CCCCC2)n1CC1CC1
6. CCn1c(C)c(C)s/c1=N\C(=O)c1cccc(C(F)(F)F)c1F

Result:
8.96
7.95
7.97
8.02
8.48
7.83

Give me pIC50 for each of these molecules, listed below.
1. Cc1c(Cl)cccc1C(=O)/N=c1\sc(C(C)(C)C)c(C)n1CC1CC1
2. O=C(/N=c1\cccc(Cl)n1CC1CC1)c1cccc(C(F)(F)F)c1F
3. Cc1ccc(F)cc1C(=O)/N=c1\sc(C(C)(C)C)c(C)n1C

Result:
9.40
8.47
7.92
